Tested on: XF498
Measurement notes: NCI tumour cell line growth inhibition, 48 h
Activity calls are given as the source filed them. No stated cut-off is given here; in the data, active = GI50 up to about 1.1 µM and inactive = higher.
Write down the outcome that applies. Available outcomes: active, inactive

Recorded test outcome, item CCn1c2ccccc2c(=O)c2c(OC)ccc(OC)c21 inactive

Recorded test outcome, item CCOC(=O)c1c(C)c(C)n2c1NC(=O)C2 active

Recorded test outcome, item CC(=O)Oc1ccc(CO)cc1OC(C)=O inactive

Recorded test outcome, item C=CCCOC(=O)CO[N+](=O)[O-] inactive

Recorded test outcome, item COc1cc(OC)cc(N2CCC(c3c(N)nc(N)nc3Cl)CC2)c1 inactive

Recorded test outcome, item O=C1C=C(Br)C(=O)C(Br)=C1 inactive

Recorded test outcome, item Nc1nc(Cl)cc(NCCCNc2cc(Cl)nc(N)n2)n1 inactive

Recorded test outcome, item N#CC1=C(c2ccccc2)NN(Cc2ccccc2)C(c2ccc(Cl)cc2)CC1=O (configuration not stated) inactive

Recorded test outcome, item COc1cc2c(cc1C1=NC(C)(C)CO1)OCO2 inactive

Recorded test outcome, item CCCCCCCCCCCCCCCCCC(=O)NCC(COP(=O)(O)O)OCC (configuration not stated) inactive

Recorded test outcome, item CCCCCCNC(=O)C(C)C1CCC2(C)C=CC(=O)C(C)=C2C1O (configuration not stated) inactive

Recorded test outcome, item OC1(C23CC4CC(CC(C4)C2)C3)CSCC1(O)C12CC3CC(CC(C3)C1)C2 (configuration not stated) inactive

The measured values listed here are drawn from ChEMBL document CHEMBL1201862.
